Data origin: the supplement of paper PMC9170038

Below, each entry is listed with its recorded apparent KD of MS2 coat protein.
- System: MS2 coat protein
- procedure_details: apparent KD of MS2 coat protein; designed switch direction (-1 OFF switch, 1 ON switch): 1; higher = weaker reporter binding
- condition: input ligand: FMN 200 uM

biopolymer_sequence: UUGAUGUACUGAGGAUAUCGUGUCGUCUGAUUUUACAUGAGGAUCACCCAUGUGGGUUGUGGUAUCGAGAAGGCAGUUUUCUUA [JR_SSNG2_Sub029] (Eterna round: R96, puzzle: Same State NG 2)
system_under_test: MS2 coat protein
apparent KD of MS2 coat protein / nM: 50.4
--
biopolymer_sequence: UGGCUCAGACGAGGAUAUAUGUGGUCACAUGAGGAUCACCCAUGUCUCGAGCUUCGGCUCGAGGCAUAGAAGGUGUCUGAGCCA [SSNG2/5-C2] (Eterna round: R96, puzzle: Same State NG 2)
system_under_test: MS2 coat protein
apparent KD of MS2 coat protein / nM: 227
--
biopolymer_sequence: GCGGAGAGGUAAGGAUAUUCAUGGCAUAGACAUGAGGAUCACCCAUGUAGGAGACGAAUUAGAAGGAAGAAGGUACCGGGACGC [AK SSNG2-V2-18.1] (Eterna round: R96, puzzle: Same State NG 2)
system_under_test: MS2 coat protein
apparent KD of MS2 coat protein / nM: 158
--
biopolymer_sequence: AUACCGUGCCAAGGAUAUGGUGUAAACACAUGAGGAUCACCCAUGUCAGAGAGUCGAGCGACUAGCUAGAAGGUGGUAUGGGAA [Eternabot solution 9] (Eterna round: R96, puzzle: Same State NG 2)
system_under_test: MS2 coat protein
apparent KD of MS2 coat protein / nM: 112
--
biopolymer_sequence: GUACUCAUGUAAGGAUAUGCAGCCGUUUCGGCUGCAGAAGGUACUAUAAUACAUGAGGAUCACCCAUGUCUCUAUAAUUUGGUG [salish99_SSNG1_r04_902] (Eterna round: R96, puzzle: Same State NG 1)
system_under_test: MS2 coat protein
apparent KD of MS2 coat protein / nM: 177
